# System: SW-620 colon
# assay-remarks: NCI-60 one-dose screen, 48 h (100 = growth as untreated, 0 = no growth, -100 = all killed)
# run-parameters: 10 µM unless noted
Compounds without any hit were thinned out: in the full panel of roughly 83,000, 20% have a hit.
# Lookup of reported growth keyed by entry
Numeric only. Scale: %

Previously resolved entries follow.
molecule: Cc1[nH]c(C(=O)Nc2cccc(OC3CCNCC3)c2)c(Cl)c1Cl
observable: growth
unit-of-measure: %
value: 0.537

molecule: COc1cccc(C(=O)OCC(O)C(=O)NC23CC4CC(CC(C4)C2)C3)c1 (centres undefined)
observable: growth
unit-of-measure: %
value: 99.6

molecule: CC(C(=O)O)n1c(O)c(C=Nc2cccnc2)sc1=S (centres undefined)
observable: growth
unit-of-measure: %
value: 102

molecule: O=C(NCc1ccc2c(c1)OCO2)NCC1CCCC(CNC(=O)NCc2ccc3c(c2)OCO3)C1 (centres undefined)
observable: growth
unit-of-measure: %
value: 98

molecule: O=C1C(Cl)=C(NCCN2CCOCC2)C(=O)c2ncccc21
observable: growth
unit-of-measure: %
value: -29.5

molecule: COc1cc(C(=O)c2c(-c3ccccc3)oc3c(OC)cccc23)cc(OC)c1O
observable: growth
unit-of-measure: %
value: 22.7

molecule: Fc1ccc(COc2ccc(Nc3ncnc4sc5c(c34)CCCC5)cc2)cc1
observable: growth
unit-of-measure: %
value: 92

molecule: COC(=O)/C(CCC=C(C)C)=C1\[C@@H](OC(C)=O)C[C@@]2(C)[C@H]1CC(=O)[C@H]1[C@@]3(C)CCC(N4CCCC4)[C@@H](C)[C@@H]3CC[C@@]12C (some centres undefined)
observable: growth
unit-of-measure: %
value: 103

# ---- query molecule ----
Short answer for CS(=O)(=O)Nc1cc(-c2ccc3ncnc(Nc4ccc5c(cnn5Cc5cccnc5)c4)c3c2)cnc1Cl : growth was 66.8

###

Each entry below carries its reported growth.
# Tested on: TK-10 renal
# assay-remarks: NCI-60 one-dose screen, 48 h (100 = growth as untreated, 0 = no growth, -100 = all killed)
# run-parameters: 10 µM unless noted
This is part of a sample that, as a whole, favours compounds with a hit. Of some 83,000 tested, about 20% had one in any assay. Active and inactive are the calls of the source. How the source made its calls: active means growth percent below 10; inactive means the rest.

compound: O=C(CCCCCCCCC(=O)N/N=C\c1cc(Cl)ccc1O)N/N=C\c1cc(Cl)ccc1O
growth: 45.7% (inactive)

compound: Cc1c2cc[nH]c(=O)c2c(C)c2c1[nH]c1ccc(OC(=O)c3ccccc3)cc12
growth: 34% (inactive)

compound: C=C(CN1CC=CCC1)[C@@H]1CC[C@]2(CO)CC[C@]3(C)[C@H](CC[C@@H]4[C@@]5(C)CC[C@H](O)C(C)(C)[C@@H]5CC[C@]43C)[C@@H]12
growth: 123% (inactive)

compound: CCCCCSB(SCCCCC)c1ccccc1
growth: 101% (inactive)

compound: CC(C)CN1CC(C(=O)Nc2ccc3c(c2)-c2ccccc2C3)CC1=O (centres undefined)
growth: 87.2% [50 µM] (inactive)

compound: CN1CCN(Cc2ccc(NC(=O)c3cncc(C#Cc4cncc5ncccc45)c3)cc2C(F)(F)F)CC1
growth: 22% (inactive)

Lab note: measured growth of C=CC(=O)N1CCN(c2ccc3cccc(NC(=O)c4cnc(C)cn4)c3n2)CC1 was 23.2% (inactive)

Memo: O=C(O)c1cccc(N/C=C/C(=O)c2cc3cc(Br)ccc3oc2=O)c1 , reported growth: 119% (inactive)

The recorded growth for CC(C)C[C@@H](C(=O)N[C@H](C(=O)OC1CCCC1)c1ccccc1)[C@H](O)C(=O)NO is 70.4% (inactive)
